molecular target: Estrogen receptor (Homo sapiens, UniProt P03372)
Sequence (P03372 whole entry): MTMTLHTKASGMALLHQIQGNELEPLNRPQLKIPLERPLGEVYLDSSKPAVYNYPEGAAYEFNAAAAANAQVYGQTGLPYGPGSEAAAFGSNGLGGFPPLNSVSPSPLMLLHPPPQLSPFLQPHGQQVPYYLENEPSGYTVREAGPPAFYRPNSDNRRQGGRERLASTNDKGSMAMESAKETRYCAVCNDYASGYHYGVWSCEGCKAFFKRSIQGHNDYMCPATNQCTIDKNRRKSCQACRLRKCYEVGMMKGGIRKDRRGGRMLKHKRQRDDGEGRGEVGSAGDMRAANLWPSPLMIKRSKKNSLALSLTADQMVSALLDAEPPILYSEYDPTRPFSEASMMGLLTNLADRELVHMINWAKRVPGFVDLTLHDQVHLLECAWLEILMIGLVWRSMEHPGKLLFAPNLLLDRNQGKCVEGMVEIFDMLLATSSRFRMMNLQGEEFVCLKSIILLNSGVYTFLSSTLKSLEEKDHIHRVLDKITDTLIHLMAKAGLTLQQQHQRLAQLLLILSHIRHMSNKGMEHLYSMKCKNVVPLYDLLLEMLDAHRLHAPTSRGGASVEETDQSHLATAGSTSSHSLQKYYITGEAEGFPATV
measured parameter: IC50 (nM)
Number in nM, nothing else.

Oc1ccc2c(c1)S[C@H](c1cccs1)[C@H](c1ccc(OCCN3CCCCC3)cc1)O2 8.8
Oc1ccc2c(c1)S[C@H](c1ccco1)[C@H](c1ccc(OCCN3CCCCC3)cc1)O2 35

Briefly, IC50 measured for Oc1ccc2c(c1)S[C@H](c1ccncc1)[C@H](c1ccc(OCCN3CCCCC3)cc1)O2 : 490

Briefly, IC50 measured for Oc1ccc2c(c1)S[C@H](CC1CCCCC1)[C@H](c1ccc(OCCN3CCCCC3)cc1)O2 : 3.9

Briefly, IC50 measured for Oc1ccc2c(c1)S[C@H](C1CCCCC1)[C@H](c1ccc(OCCN3CCCCC3)cc1)O2 : 2.6

Briefly, IC50 measured for Oc1ccc(C[C@H]2Sc3cc(O)ccc3O[C@H]2c2ccc(OCCN3CCCCC3)cc2)cc1 : 2.7

Briefly, IC50 measured for Oc1ccc2c(c1)S[C@H](C1CCCC1)[C@H](c1ccc(OCCN3CCCCC3)cc1)O2 : 2.5

Briefly, IC50 measured for CC(C)C[C@H]1Sc2cc(O)ccc2O[C@H]1c1ccc(OCCN2CCCCC2)cc1 : 3

Briefly, IC50 measured for Oc1ccc2c(c1)S[C@H](CC1CCCC1)[C@H](c1ccc(OCCN3CCCCC3)cc1)O2 : 3

Briefly, IC50 measured for Oc1ccc2c(c1)S[C@H](c1cccnc1)[C@H](c1ccc(OCCN3CCCCC3)cc1)O2 : 542
